# assay: LTI-291-003 multiple dose study in GBA-PD: plasma and CSF pharmacokinetics
# Assay type: in vivo, human
# assay conditions: human, plasma, oral; 30 mg daily, dose 1, GBA-PD, median
endpoint name: Tmax (h)

>  <chemical smiles>
CCCCCO[C@H]1CC[C@H](NC(=O)c2cnn3c(C)cc(C)nc23)CC1

>  <recorded measurement>
2

$$$$

* * *

# assay: clinical
# assay conditions: both, human, in vivo
endpoint name: Tmax (min)

>  <chemical smiles>
N[C@@H](Cc1ccc(O)c(O)c1)C(=O)O

>  <endpoint name>
Tmax

>  <unit tag>
min

>  <recorded measurement>
46.2

$$$$

* * *

# assay: BIA 28-6156-107 DDI: effect of multiple-dose carbamazepine on single-dose PK of Compound A
# Type: in vivo, human
# assay conditions: both sexes, human, in vivo, oral; Compound A coadministered with carbamazepine; read-out: geometric mean t1/2 (converted)

>  <compound>
CCCCCO[C@H]1CC[C@H](NC(=O)c2cnn3c(C)cc(C)nc23)CC1 [Compound A]

>  <half-life / h>
12

$$$$
